target-system: TrkB (Homo sapiens (Human), UniProt Q16620 32-430)
Sequence (Q16620 32-430 limits assumed): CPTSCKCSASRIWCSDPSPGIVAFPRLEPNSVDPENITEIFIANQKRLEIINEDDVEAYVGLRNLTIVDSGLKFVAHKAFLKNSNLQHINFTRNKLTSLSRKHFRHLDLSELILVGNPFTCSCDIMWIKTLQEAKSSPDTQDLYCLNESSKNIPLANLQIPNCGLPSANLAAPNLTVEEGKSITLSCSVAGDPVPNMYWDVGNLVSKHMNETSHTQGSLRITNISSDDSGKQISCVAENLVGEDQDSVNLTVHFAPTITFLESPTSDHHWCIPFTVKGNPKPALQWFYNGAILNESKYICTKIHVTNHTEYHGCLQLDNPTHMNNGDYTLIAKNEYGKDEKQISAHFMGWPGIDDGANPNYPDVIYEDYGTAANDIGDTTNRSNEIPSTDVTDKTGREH
measurement-protocol: koff of Fab at 25 C; T1/2=Log2/koff
endpoint-label: T1/2 (min)
Numbers only; they are read as min.

binder	unit-tag	numeric-result
5-E2 (Fab, V domains shown, Fab) VH: QVQLVQSGAEVKKPGASVKVSCKASGYTFTNYVILWVRQAPGQGLEWMGYINPYNDGTKYNEKFKGRVTMTRDTSTSTVYMELSSLRSEDTAVYYCARLLKYRRFKYYAIDYWGQGTTVTVSS VL: DIQMTQSPSSLSASVGDRVTITCRASENVYSNLAWYQQKPGKAPKLLIYAASNLQSGVPSRFSGSGSGTDFTFTISSLQPEDIATYYCQHFWYSPFTFGQGTKLEIK	min	1.66
13-B4 (Fab, V domains shown, Fab) VH: QVQLVQSGAEVKKPGASVKVSCKASGYTFTNYDIIWVRQAPGQGLEWMGYINPYNDGRKENEKFKGRVTMTRDTSTSTVYMELSSLRSEDTAVYYCARLLKYRRFRYYAIDYWGQGTTVTVSS VL: DIQMTQSPSSLSASVGDRVTITCRASENVYMNLAWYQQKPGKAPKLLIYAASNLQSGVPSRFSGSGSGTDYTFTISSLQPEDIATYYCQHFWYSPFTFGQGTKLEIK	min	13

### Prompt For the binder shown here, 7-F1 (Fab, V domains shown, Fab) VH: QVQLVQSGAEVKKPGASVKVSCKASGYTFTNYVILWVRQAPGQGLEWMGYINPYNDGTKYNEKFKGRVTMTRDTSTSTVYMELSSLRSEDTAVYYCARLLKYRRFRYYAIDYWGQGTTVTVSS VL: DIQMTQSPSSLSASVGDRVTITCRASENVYSNLAWYQQKPGKAPKLLIYAASNLQSGVPSRFSGSGSGTDFTFTISSLQPEDIATYYCQNFWYSPFTFGQGTKLEIK , give the reported T1/2.
### Response 0.54
